src = the kinase profiling compilation of Christmann-Franck et al. (2016)

Target: KDR (human) (UniProt P35968)
Sequence (P35968 whole entry, looked up): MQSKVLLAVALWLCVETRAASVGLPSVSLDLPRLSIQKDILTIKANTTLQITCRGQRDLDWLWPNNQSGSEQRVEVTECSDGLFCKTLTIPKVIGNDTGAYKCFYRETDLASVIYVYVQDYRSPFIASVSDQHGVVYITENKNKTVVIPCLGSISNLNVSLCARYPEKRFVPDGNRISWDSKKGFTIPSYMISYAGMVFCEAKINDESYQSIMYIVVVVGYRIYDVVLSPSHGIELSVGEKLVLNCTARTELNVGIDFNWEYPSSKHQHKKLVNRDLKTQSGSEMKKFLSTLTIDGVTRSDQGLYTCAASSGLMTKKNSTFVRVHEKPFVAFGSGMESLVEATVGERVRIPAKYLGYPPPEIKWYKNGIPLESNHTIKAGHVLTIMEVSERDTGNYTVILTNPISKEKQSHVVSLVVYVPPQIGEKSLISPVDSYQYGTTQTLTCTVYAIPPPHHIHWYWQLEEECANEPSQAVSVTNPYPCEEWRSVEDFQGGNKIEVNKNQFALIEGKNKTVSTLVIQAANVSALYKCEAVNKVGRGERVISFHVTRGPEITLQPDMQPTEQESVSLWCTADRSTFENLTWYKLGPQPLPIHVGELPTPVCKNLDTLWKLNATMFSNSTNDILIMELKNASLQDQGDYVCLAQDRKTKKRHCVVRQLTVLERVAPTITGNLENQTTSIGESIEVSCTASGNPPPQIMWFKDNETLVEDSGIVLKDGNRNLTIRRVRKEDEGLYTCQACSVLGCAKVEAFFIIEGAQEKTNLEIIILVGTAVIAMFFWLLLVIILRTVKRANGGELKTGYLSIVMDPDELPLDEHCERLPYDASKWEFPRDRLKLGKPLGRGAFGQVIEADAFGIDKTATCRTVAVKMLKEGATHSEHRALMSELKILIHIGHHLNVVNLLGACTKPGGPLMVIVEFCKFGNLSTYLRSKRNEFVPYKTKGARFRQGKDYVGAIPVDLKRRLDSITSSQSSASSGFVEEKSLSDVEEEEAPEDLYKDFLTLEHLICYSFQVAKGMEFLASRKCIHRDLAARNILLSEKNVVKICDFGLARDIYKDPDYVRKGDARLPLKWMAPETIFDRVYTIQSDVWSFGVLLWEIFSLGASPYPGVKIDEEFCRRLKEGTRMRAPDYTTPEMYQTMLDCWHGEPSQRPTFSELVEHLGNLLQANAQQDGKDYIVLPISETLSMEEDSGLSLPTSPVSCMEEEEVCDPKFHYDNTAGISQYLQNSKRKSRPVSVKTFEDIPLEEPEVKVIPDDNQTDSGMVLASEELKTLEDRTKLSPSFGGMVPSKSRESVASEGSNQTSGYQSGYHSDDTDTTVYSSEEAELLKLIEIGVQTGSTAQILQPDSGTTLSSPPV
Assay: KINOMEscan competition binding
Details: compound 10.0 µM
For each record, write down the corresponding kinase still bound, per cent of control.
Entry format: amount then unit.

Before answering, review these 5 worked examples.
# Chem Smiles, Assayed Target, kinase still bound, per cent of control
records = [
    ("COc1cc(N2CCN(C)CC2)ccc1Nc1ncc2c(n1)Nc1ccccc1NC2=O", "KDR (human) (UniProt P35968)", "74%"),
    ("CN1C(=O)c2ccccc2N(C)c2nc(NS(=O)(=O)c3ccc(N)cc3)ncc21", "KDR (human) (UniProt P35968)", "88%"),
    ("COc1cc(N2CCN(C)CC2)ccc1Nc1ncc2c(n1)N(C)c1ccccc1N(C)C2=O", "KDR (human) (UniProt P35968)", "100%"),
    ("CN1CCN(c2ccc(C(=O)Nc3ncc4c(n3)N(C)c3ccccc3C(=O)N4C)cc2)CC1", "KDR (human) (UniProt P35968)", "86%"),
    ("COc1cc(N2CCN(C)CC2)ccc1Nc1ncc2c(n1)N(C)c1sccc1C(=O)N2C", "KDR (human) (UniProt P35968)", "90%"),
]

Provide each entry's kinase still bound, per cent of control from the list below.
1. O=C1NC(=S)S/C1=C\c1ccc(-c2cncc3ccccc23)o1
2. O=C1NC(=O)/C(=C/c2c[nH]c(=O)c(-c3ccc(N4CCNCC4)nc3)c2)S1

A)
1. 21%
2. 100%

Provide each entry's kinase still bound, per cent of control from the list below.
1. COc1cc(N2CCC(O)CC2)ccc1Nc1ncc2c(n1)N1CCc3cccc(c31)C(=O)N2C
2. CCN1CCN(Cc2cc(NC(=O)c3cccc4cc(-c5ccc(/C=C6\SC(=O)NC6=O)o5)ccc34)cc(C(F)(F)F)c2)CC1
3. CN1C(=O)c2ccccc2N(C)c2nc(Nc3ccc(N4CCC(O)CC4)cc3)ncc21

A)
1: 79%; 2: 9%; 3: 97%

* * *

For each record, write down the corresponding kinase still bound, per cent of control.
Molecular target: PTK6 (human) (UniProt Q13882)
Sequence (Q13882 whole entry, looked up): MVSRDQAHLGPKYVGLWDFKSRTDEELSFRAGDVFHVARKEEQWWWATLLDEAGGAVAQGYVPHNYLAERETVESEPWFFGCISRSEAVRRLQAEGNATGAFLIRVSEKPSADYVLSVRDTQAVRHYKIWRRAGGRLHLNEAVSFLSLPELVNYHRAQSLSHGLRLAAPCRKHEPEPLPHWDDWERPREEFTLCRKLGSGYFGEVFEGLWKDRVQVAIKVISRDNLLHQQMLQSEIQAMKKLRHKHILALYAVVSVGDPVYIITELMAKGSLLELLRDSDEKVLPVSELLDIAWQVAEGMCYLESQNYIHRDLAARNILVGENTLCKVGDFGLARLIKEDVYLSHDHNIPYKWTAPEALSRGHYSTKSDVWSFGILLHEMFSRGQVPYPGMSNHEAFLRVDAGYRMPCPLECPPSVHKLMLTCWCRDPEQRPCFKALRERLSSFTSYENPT
Test: KINOMEscan competition binding
Conditions: compound 10.0 µM
One number for each entry, in %.

# Chem Smiles, Assayed Target, Unit Label, kinase still bound, per cent of control
data = [
    ("COc1cc(N2CCN(C)CC2)ccc1Nc1ncc2c(n1)N(C(C)C)c1ccccc1C(=O)N2", "PTK6 (human) (UniProt Q13882)", "%", 13),
    ("COc1cc(N2CCN(C)CC2)ccc1Nc1ncc2c(n1)Nc1ccccc1NC2=O", "PTK6 (human) (UniProt Q13882)", "%", 82),
    ("COc1cc(N2CCN(C)CC2)ccc1Nc1ncc2c(n1)N(C)c1ccccc1C(=O)N2C", "PTK6 (human) (UniProt Q13882)", "%", 7.6),
    ("COc1cc(N2CCN(C)CC2)ccc1Nc1ncc2c(n1)N(C)c1ccccc1N(C)C2=O", "PTK6 (human) (UniProt Q13882)", "%", 32),
    ("COc1cc(N2CCN(C)CC2)ccc1Nc1ncc2c(n1)N(C)c1ccccc1C(=O)N2", "PTK6 (human) (UniProt Q13882)", "%", 0.15),
]

Provide each entry's kinase still bound, per cent of control from the list below.
1. CN1C(=O)c2ccccc2N(C)c2nc(NS(=O)(=O)c3ccc(N)cc3)ncc21
2. COc1cc(N2CCC(O)CC2)ccc1Nc1ncc2c(n1)N1CCc3cccc(c31)C(=O)N2C

A)
1. 100
2. 100
